Value source: paper PMC11368889

target: Histone H3 (H3K9me3) (Homo sapiens, UniProt P68431); experiment: fluorescence microscopy titration in fixed HEK293 cells (Hill1 fit)
assay-metric: Kd (nM)
Kindly provide the numeric value in nM only, without the unit symbol.

Exercise: Give its Kd value. Item: MPP8-Green (MPP8-mNeonGreen-NLS-MPP8) 55-117 (protein) GEDVFEVEKILDMKTEGGKVLYKVRWKGYTSDDDTWEPEIHLEDCKEVLLEFRKKIAENKAKA
Solution: 490
